# Z score per record follows
# Tested on: Plasmodium falciparum
# Method: Primary screen in NF54 nanoGlo assay, in single point, at 2uM, 72h
# Format: functional, Erythrocyte
# Assay conditions: timepoint 72 hour
Among all 150,000 compounds or so, about 540 (0.36%) showed an effect of 50% or more. This is one part of a sample in which strong results are shown more often than they occur.
Assay readout: Z score

molecule=Cc1ccsc1CN(Cc1cccnc1)CC(C)C assay_readout="Z score" recorded_result=0.87
molecule=CN(c1cnn(C)c1)S(=O)(=O)c1ccccc1 assay_readout="Z score" recorded_result=1.93
molecule=C[C@@H](CN)N(C)c1ccnc2cc(Br)cnc12 assay_readout="Z score" recorded_result=-17.88
molecule="CC(C)(C)OC(=O)N1CC2CC1CCC2=O (stereo not given)" assay_readout="Z score" recorded_result=0.51
molecule=COc1cccc(C(=O)Nc2c3c(nc4ccccc24)CCCC3)c1 assay_readout="Z score" recorded_result=-0.12
molecule=Cn1ccnc1CN1C[C@@H](F)C[C@H]1CNc1ncnc2c1CCCCC2 assay_readout="Z score" recorded_result=0.8
molecule=CC(=O)c1ccc(S(=O)(=O)NC2(C(F)(F)F)CCOCC2)cc1 assay_readout="Z score" recorded_result=1.89
molecule=C[C@@H]1CN(CCCCO)CCN1C(=O)OC(C)(C)C assay_readout="Z score" recorded_result=0.08
molecule=Cc1cc(N2CC(OCc3ccccc3)C2)nc(Nc2cccc(O)c2)n1 assay_readout="Z score" recorded_result=-12.9
molecule=Cc1cc(N2CCOC[C@@H](O)C2)nc(Nc2cccc(O)c2)n1 assay_readout="Z score" recorded_result=0.39
molecule=O=C(Nc1cccc2ccccc12)C1CCN(c2cc(-c3ccc(F)cc3)ncn2)CC1 assay_readout="Z score" recorded_result=0.24
molecule=COc1cc(C(=O)Nc2ccc3sc(NC(=O)c4cc(OC)c(OC)c(OC)c4)nc3n2)cc(OC)c1OC assay_readout="Z score" recorded_result=-16.35
molecule=Cc1noc2ncnc(N3CCCC[C@H]3c3nccs3)c12 assay_readout="Z score" recorded_result=0.7
molecule=Cc1ccc(Oc2nc(N3CCOCC3)nc3c2CN(S(=O)(=O)c2cccc(Cl)c2)CC3)cc1 assay_readout="Z score" recorded_result=-1.2
molecule="COc1ccc(-c2nc3ccc(C(=O)NC4CCCC(C)C4C)cc3nc2-c2ccc(OC)c(OC)c2)cc1OC (stereo not given)" assay_readout="Z score" recorded_result=-2.87
molecule=Nc1c2c(nc3c1cnn3-c1cc(F)cc(F)c1)CCCC2=O assay_readout="Z score" recorded_result=1.23
molecule=Cc1ccc(-c2ncc(CN3CCCC4(C3)OCCO4)s2)o1 assay_readout="Z score" recorded_result=0.88
molecule=Cc1ccc(-n2nnnc2C2(NC(C)C)CCCC2)cc1 assay_readout="Z score" recorded_result=0.43
molecule=Cc1nc(N(C)C)cc(N2CCN(C(=O)C3CCCC3)CC2)n1 assay_readout="Z score" recorded_result=1.88
molecule=O=C(c1cccc(-n2cnnn2)c1)N1CCN(C(c2ccccc2)c2ccccc2)CC1 assay_readout="Z score" recorded_result=-1.28
molecule=Cc1ccncc1C(=O)N1CCC(CCn2c(C)cnc2C2CC2)CC1 assay_readout="Z score" recorded_result=0.37
molecule=CC(C)(C)CN(CC(=O)O)C(=O)Cc1ccccc1F assay_readout="Z score" recorded_result=1.82
molecule=O=C(NC1CC1)c1ccccc1C(=O)c1ccc(F)cc1 assay_readout="Z score" recorded_result=1.02
molecule=Cc1cc(NCc2csc(N(C)C)n2)nc(Nc2cccc(O)c2)n1 assay_readout="Z score" recorded_result=0.61
molecule=COc1ncnc(OC)c1CNc1cnn(C)c1 assay_readout="Z score" recorded_result=-0.52
molecule=COc1cc2c(N3CCC([C@H](O)C(=O)NC4CC4)CC3)ccnc2cc1F assay_readout="Z score" recorded_result=0.61
molecule=Clc1ccccc1OCCn1nc(C2CC2)nc1C1CC1 assay_readout="Z score" recorded_result=-0.37
molecule=CC[C@@H](CNc1cc(NC2CC2)ncn1)C(=O)O assay_readout="Z score" recorded_result=1.58
molecule=CN(C)S(=O)(=O)N1CCC2(CCC(=O)N(CCc3ccccn3)C2)CC1 assay_readout="Z score" recorded_result=1.7
molecule=COc1cccc(NC(=O)c2cc(C(=O)Nc3cccc(OC)c3)cc(N3C(=O)c4ccccc4C3=O)c2)c1 assay_readout="Z score" recorded_result=-2.84
molecule=CCn1nc(-c2ccc(OC)cc2F)cc1C(=O)NCCN1CCCCC1 assay_readout="Z score" recorded_result=2.1
molecule=COc1ccc(C(=O)c2ccccc2C(=O)Nc2cn[nH]c2)cc1 assay_readout="Z score" recorded_result=1.57
molecule=COc1cc(C(=O)Nc2scnc2C)cc(OC)c1OC assay_readout="Z score" recorded_result=0.11
molecule=Cc1cc(NCc2c(C)noc2C)nc(C2CC2)n1 assay_readout="Z score" recorded_result=1.22
molecule=COc1ccc(Cl)cc1-c1c(N2CCCC2)cn[nH]c1=O assay_readout="Z score" recorded_result=-0.09

* * *

# Test system: Plasmodium falciparum
# Method: Primary screen in NF54 nanoGlo assay, in single point, at 2uM, 72h
# Type: functional, Erythrocyte
# Assay conditions: timepoint 72 hour
In all, about 150,000 compounds went through this assay and about 540 (0.36%) showed an effect of 50% or more. The sample holds strong results, similar compounds and a random draw of the others, so the mix is not that of the screen.
Would you please tag the item rule met when its Z score is 1 or above, and rule not met when it is below?

smiles_structure=CC(=O)Nc1ccc(-c2cn(C)c[n+]2C)cc1 target_of_assay="Plasmodium falciparum" class_label="rule met"
smiles_structure=CCCCNC(=O)c1ccc(CN2C(=O)CCn3nccc32)cc1 target_of_assay="Plasmodium falciparum" class_label="rule not met"
smiles_structure=CN(C)c1ncc(CN[C@H]2[C@H](c3ccccc3)C2(C)C)cn1 target_of_assay="Plasmodium falciparum" class_label="rule not met"
smiles_structure=COc1ccc(C)c2sc(N(CCCN(C)C)C(=O)c3ccnn3C)nc12 target_of_assay="Plasmodium falciparum" class_label="rule met"
smiles_structure=CS(=O)(=O)N1C[C@H]2CC[C@@H](C1)N(C(=O)c1ccc3[nH]nnc3c1)C2 target_of_assay="Plasmodium falciparum" class_label="rule met"
smiles_structure=COc1cccc(CN2C(=O)c3cc4ccc(OC)cc4n3C[C@@]2(C)C(=O)NC2CCCCCC2)c1 target_of_assay="Plasmodium falciparum" class_label="rule met"
smiles_structure=COc1ccc2cc3n(c2c1)C[C@@](C)(C(=O)NC1CCCCCC1)N(CCN1CCCCCC1)C3=O target_of_assay="Plasmodium falciparum" class_label="rule not met"
smiles_structure=O=C1COc2ccccc2N1Cc1nc(-c2ccc(N3CCOCC3)cc2)no1 target_of_assay="Plasmodium falciparum" class_label="rule met"
smiles_structure=CC(=O)Nc1ccc(-c2cn3c4ccccc4ccc3[n+]2C)cc1 target_of_assay="Plasmodium falciparum" class_label="rule not met"
smiles_structure=Cc1ccc(OS(=O)(=O)c2ccc3c(c2)NC(=O)CO3)c(Br)c1 target_of_assay="Plasmodium falciparum" class_label="rule not met"
smiles_structure=OCCN(CCO)c1ccc(C(c2ccccc2Cl)c2ccc(N(CCO)CCO)cc2Cl)c(Cl)c1 target_of_assay="Plasmodium falciparum" class_label="rule met"
smiles_structure=CN1C[C@@H](N)C[C@H]1c1nc(COc2ccc(F)cc2)nn1CC(F)(F)F target_of_assay="Plasmodium falciparum" class_label="rule not met"
smiles_structure=CC[C@@](C)(CNC(=O)COCc1cccc(OC)c1)N1CCOCC1 target_of_assay="Plasmodium falciparum" class_label="rule not met"

* * *

# Test system: Plasmodium falciparum
# Method: Primary screen in NF54 nanoGlo assay, in single point, at 2uM, 72h; a lower Z score goes with more inhibition
# Type: functional, Erythrocyte
# Assay conditions: timepoint 72 hour
The whole screen tested about 150,000 compounds, of which about 540 (0.36%) showed an effect of 50% or more. This excerpt belongs to a sample that is enriched for strong results.
Would you please tag the item Criterion met when its Z score is 1 or above, and Criterion not met when it is below?

compound=CC(=O)[C@H](C)n1nc(C2CC2)ccc1=O class_label="Criterion met"
compound=O=C(Nc1ccc(Cl)c(N2CCCS2(=O)=O)c1)NC1CCOCC1 class_label="Criterion met"
compound=Cc1cccc(CN2C[C@@H](O)C[C@H]2c2nnc3n2CCN(C(=O)C(C)C)C3)c1 class_label="Criterion not met"
compound=CCOc1ccc(Cl)cc1-c1cc(C)n[nH]c1=O class_label="Criterion met"
compound=Cc1nn(C(C)(C)C)c2nc(C3CC3)cc(C(=O)N3CCN(c4ccccc4)CC3)c12 class_label="Criterion not met"
compound="O=C(NC1CC1c1ccc(F)cc1)N1CCN(c2ccccc2O)CC1 (stereo not given)" class_label="Criterion met"
compound=COc1cc2c(cc1-c1nccn1Cc1noc(C(C)C)n1)OCO2 class_label="Criterion not met"
compound=O=c1c2cc(F)ccc2c(Br)cn1CC1(CO)COC1 class_label="Criterion not met"
compound="Cc1ccc(NC(=O)N2CCC(C(NC(=O)c3ccccc3)C(=O)N3CCCCC3C)CC2)cc1 (stereo not given)" class_label="Criterion not met"
compound=Cc1nccn1CC(=O)N[C@@H](C)C1=CCCCC1 class_label="Criterion not met"
compound=Cc1c(Cl)cccc1NC(=O)c1sccc1S(=O)(=O)N1CCc2ccccc2C1 class_label="Criterion not met"
compound=O=C(c1cnc2ccsc2c1)N1CC2(CCCCC2)C1 class_label="Criterion met"
compound=CNC(=O)[C@@H]1C[C@H](Oc2ccccc2)CN1S(C)(=O)=O class_label="Criterion met"
compound="CC1(C)C2CCC1(C)C(OC(=O)CN1CCCCCC1)C2 (stereo not given)" class_label="Criterion not met"
compound=Oc1cccc(CN2CCC3(CC2)C[C@H](c2ccccc2)CN(C2CC2)C3)c1 class_label="Criterion not met"
compound=COc1cc(C)c(-c2ccc(C(=O)N3CCCCCC3)cc2)cn1 class_label="Criterion met"
compound=c1ccc([C@@H]2CN(C3CC3)CC3(CCN(Cc4ccccn4)CC3)C2)cc1 class_label="Criterion met"
compound=Nc1c(Br)cc2oc(-c3ccc4ccccc4c3)nc2c1Br class_label="Criterion not met"
compound=CCN(C(C)=O)c1nc2ccccc2n(CC(=O)Nc2cccc(C(C)=O)c2)c1=O class_label="Criterion not met"
compound=Cc1nn(C(C)(C)C)c2nc(C3CC3)cc(C(=O)N(C)Cc3cccc(C#N)c3)c12 class_label="Criterion met"
